Listed here: items and their measured EC90.
Tested on: 229E
Assay: 229E MRC5 CPE assay (cytopathic experiment)
Format: cell-based, coronavirus 229E (HCoV-229E)
Details: Human coronavirus 229E, MRC5, 72 h, read-out: 229E MRC5 CPE assay (μM) EC90
ASSAY_ENDPOINT: EC90

CCCC(CCC)C(=O)OCO[P@](=O)(N[C@@H](C)C(=O)OCC(CC)CC)OC[C@H]1O[C@@](C#N)(c2ccc3c(N)ncnn23)[C@H](O)[C@@H]1O = 0.1 to 0.5 µM
CCCC(CCC)C(=O)OCOP(=O)(NC(C)(C)C(=O)OC(C)C)OC[C@H]1O[C@@](C#N)(c2ccc3c(N)ncnn23)[C@H](O)[C@@H]1O (stereo partly drawn) = > 0.5 µM
CCCC(CCC)C(=O)OC(C)O[P@]1(=O)OC[C@H]2O[C@@](C#N)(c3ccc4c(N)ncnn34)[C@H](O)[C@@H]2O1 (stereo partly drawn) = > 0.5 µM
CCCC(CCC)C(=O)O[C@@H]1[C@@H]2OP(=O)(O)OC[C@H]2O[C@@]1(C#N)c1ccc2c(N)ncnn12 = > 0.5 µM
CC(C)OC(=O)C(C)(C)N[P@](=O)(OCOC(=O)C(C)(C)C)OC[C@H]1O[C@@](C#N)(c2ccc3c(N)ncnn23)[C@H](O)[C@@H]1O = > 0.5 µM
CCCC(CCC)C(=O)OCO[P@@](=O)(NC(C)(C)C(=O)OC(C)C)OC[C@H]1O[C@@](C#N)(c2ccc3c(N)ncnn23)[C@H](O)[C@@H]1O = 0.1 to 0.5 µM
CC(C)(C)C(=O)O[C@@H]1[C@@H]2O[P@](=O)(O)OC[C@H]2O[C@@]1(C#N)c1ccc2c(N)ncnn12 = > 0.5 µM
[2H]c1cc([C@]2(C#N)O[C@@H]3CO[P@](=O)(OCOC(=O)C(CCC)CCC)O[C@H]3[C@H]2O)n2ncnc(N)c12 = < 0.1 µM
CC(C)(C)C(=O)OCO[P@@]1(=O)OCC2O[C@@](C#N)(c3ccc4c(N)ncnn34)[C@H](O)[C@@H]2O1 (stereo partly drawn) = > 0.5 µM
CCCC(CCC)C(=O)OCO[P@]1(=O)OC[C@H]2O[C@@](C#N)(c3ccc4c(N)ncnn34)[C@H](O)[C@@H]2O1 = 0.1 to 0.5 µM
CCCN(CCC)S(=O)(=O)c1ccc(C(=O)OCO[P@@]2(=O)OCC3O[C@@](C#N)(c4ccc5c(N)ncnn45)[C@H](O)[C@@H]3O2)cc1 (stereo partly drawn) = > 0.5 µM
CC(C)OC(=O)C(C)(C)N[P@](=O)(OCOC(=O)C1CCCC1)OC[C@H]1O[C@@](C#N)(c2ccc3c(N)ncnn23)[C@H](O)[C@@H]1O = > 0.5 µM

---

Test system: 229E
Test: 229E MRC5 CPE assay (cytopathic experiment)
Assay type: cell-based, coronavirus 229E (HCoV-229E)
Conditions: Human coronavirus 229E, MRC5, 72 h, read-out: 229E MRC5 CPE assay (μM) EC90
Listed here: items and their measured EC90.
ASSAY_ENDPOINT: EC90

[2H]c1cc([C@]2(C#N)O[C@@H]3CO[P@@](=O)(O)O[C@H]3[C@H]2OC(=O)C(CCC)CCC)n2ncnc(N)c12 = > 0.5 µM
CC(C)OC(=O)C(C)(C)N[P@](=O)(OCOC(=O)c1cccnc1)OC[C@H]1O[C@@](C#N)(c2ccc3c(N)ncnn23)[C@H](O)[C@@H]1O = > 0.5 µM
CCCC(CCC)C(=O)OCO[P@](=O)(N[C@@H](C)C(=O)OC)OC[C@H]1O[C@@](C#N)(c2ccc3c(N)ncnn23)[C@H](O)[C@@H]1O = 0.1 to 0.5 µM
CC(C)OC(=O)C(C)(C)NP(=O)(OCOC(=O)C(C)(C)C)OC[C@H]1O[C@@](C#N)(c2ccc3c(N)ncnn23)[C@H](O)[C@@H]1O (stereo partly drawn) = > 0.5 µM
CCCC(CCC)C(=O)OCO[P@](=O)(N[C@@H](Cc1ccccc1)C(=O)OCC)OC[C@H]1O[C@@](C#N)(c2ccc3c(N)ncnn23)[C@H](O)[C@@H]1O = 0.1 to 0.5 µM
CCCC(CCC)C(=O)OCO[P@@](=O)(N[C@@H](C)C(=O)OC(C)C)OC[C@H]1O[C@@](C#N)(c2ccc3c(N)ncnn23)[C@H](O)[C@@H]1O = 0.1 to 0.5 µM

// data source = patent US20240252527A9
